// provenance: patent US5698522A

target: LHRH receptor (Rattus norvegicus); construct: endogenous in cells; assay: in vitro LHRH antagonist potency (pA2) against the agonist leuprolide; assay type: cell-based; conditions: negative logarithm of the antagonist concentration which shifts the response curve produced by the agonist leuprolide to two-fold higher concentration
Sequence (P30969 whole entry): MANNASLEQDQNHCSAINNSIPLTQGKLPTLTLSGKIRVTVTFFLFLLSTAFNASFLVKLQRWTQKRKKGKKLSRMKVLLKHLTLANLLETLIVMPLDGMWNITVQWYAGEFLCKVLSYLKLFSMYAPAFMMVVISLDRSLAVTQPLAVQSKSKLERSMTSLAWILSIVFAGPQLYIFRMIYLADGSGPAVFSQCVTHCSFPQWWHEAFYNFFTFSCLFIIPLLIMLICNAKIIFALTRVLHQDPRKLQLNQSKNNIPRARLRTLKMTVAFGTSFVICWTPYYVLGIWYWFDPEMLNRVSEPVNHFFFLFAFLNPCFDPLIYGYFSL
Where a SMILES comes first, the peptide text is derived from it. Side-chain parts run from the residue outwards. [ ]: non-standard residue; d: D form. The star is where a group is joined. Shikimoyl = O=C(C1=C[C@@H](O)[C@@H](O)[C@H](O)C1)*; dPhe(4-Cl) = N[C@H](Cc1ccc(Cl)cc1)C(=O)O; d2Nal = N[C@H](Cc1ccc2ccccc2c1)C(=O)O; Lys(iPr) = CC(C)NCCCC[C@H](N)C(=O)O; NMeY = CN[C@@H](Cc1ccc(O)cc1)C(=O)O; Thiophene2carbonyl = O=C(c1cccs1)*; d3Pal = N[C@H](Cc1cccnc1)C(=O)O; Nicotinoyl = O=C(c1cccnc1)*; X1 = O=C(c1cc2ccccc2cc1O)*; azaGly = NNC(=O)O
Label Satisfied when Kb is strictly below 20 pM; otherwise label Not satisfied.

Before answering, review these 3 worked examples.
CC(=O)N[C@H](Cc1ccc2ccccc2c1)C(=O)N[C@H](Cc1ccc(Cl)cc1)C(=O)N[C@H](Cc1cccnc1)C(=O)N[C@@H](CO)C(=O)N(C)[C@@H](Cc1ccc(O)cc1)C(=O)N[C@H](CCCCNC(=O)NNC(=O)c1cccs1)C(=O)N[C@@H](CC(C)C)C(=O)N[C@@H](CCCCNC(C)C)C(=O)N1CCC[C@H]1C(=O)N[C@H](C)C(N)=O [Example 5b] (Ac-[d2Nal][dPhe(4-Cl)][d3Pal]S[NMeY][dK]([azaGly-Thiophene2carbonyl])L[Lys(iPr)]P[dA]-NH2) : Satisfied
CC(=O)N[C@H](Cc1ccc2ccccc2c1)C(=O)N[C@H](Cc1ccc(Cl)cc1)C(=O)N[C@H](Cc1cccnc1)C(=O)N[C@@H](CO)C(=O)N(C)[C@@H](Cc1ccc(O)cc1)C(=O)N[C@H](CCCCNC(=O)CNC(=O)C1=C[C@@H](O)[C@@H](O)[C@H](O)C1)C(=O)N[C@@H](CC(C)C)C(=O)N[C@@H](CCCNC(=N)N)C(=O)N1CCC[C@H]1C(=O)N[C@H](C)C(N)=O [Example 17] (Ac-[d2Nal][dPhe(4-Cl)][d3Pal]S[NMeY][dK]([Gly-Shikimoyl])LRP[dA]-NH2) : Satisfied
CC(=O)N[C@H](Cc1ccc2ccccc2c1)C(=O)N[C@H](Cc1ccc(Cl)cc1)C(=O)N[C@H](Cc1cccnc1)C(=O)N[C@@H](CO)C(=O)N(C)[C@@H](Cc1ccc(O)cc1)C(=O)N[C@H](CCCCNC(=O)NNC(=O)c1cccnc1)C(=O)N[C@@H](CC(C)C)C(=O)N[C@@H](CCCCNC(C)C)C(=O)N1CCC[C@H]1C(=O)N[C@H](C)C(N)=O [Example 3] (Ac-[d2Nal][dPhe(4-Cl)][d3Pal]S[NMeY][dK]([azaGly-Nicotinoyl])L[Lys(iPr)]P[dA]-NH2) : Satisfied

// next entry
Task item: Field: below-cutoff. Rule: recorded Kb strictly less than 20 pM. Subject: CC(=O)N[C@H](Cc1ccc2ccccc2c1)C(=O)N[C@H](Cc1ccc(Cl)cc1)C(=O)N[C@H](Cc1cccnc1)C(=O)N[C@@H](CO)C(=O)N(C)[C@@H](Cc1ccc(O)cc1)C(=O)N[C@H](CCCCNC(=O)NNC(=O)c1cc2ccccc2cc1O)C(=O)N[C@@H](CC(C)C)C(=O)N[C@@H](CCCCNC(C)C)C(=O)N1CCC[C@H]1C(=O)N[C@H](C)C(N)=O [Example 5d] (Ac-[d2Nal][dPhe(4-Cl)][d3Pal]S[NMeY][dK]([azaGly-X1])L[Lys(iPr)]P[dA]-NH2)
Reply: Not satisfied
